Each entry below carries its recorded expression of mRNA in mice, times that of YK-302.
Test system: female BALB/C mice
protocol_notes: Live imaging in mice: protein expression of Fluc-mRNA delivered by LNP formulations
Assay type: in vivo
assay_conditions: 24 h; comparator YK-302
Use times as the unit, but write only the number.

Lookup: Under female BALB/C mice: report expression of mRNA in mice, times that of YK-302 of CCCCCCCCC(CCCCCCCC)OC(=O)CCCCCN(CCCCCC(=O)OC(CCCCCCCC)CCCCCCCC)C[C@H](O)CN(CCO)CCO [YK-318] .
Found: 244.83

====

protocol_notes: Particle size and polydispersity index (PDI) of lipid nanoparticles by dynamic light scattering
Assay type: physicochemical
assay_conditions: LNP formulation prepared from the cationic lipid, 25° C.
Description: The particle size and polydispersity index (PDI) were determined by dynamic light scattering using Malvern laser particle size analyzer. 10 μL of the liposome solution was weighed, diluted to 1 mL with RNase-free deionized water, and added to the sample pool. Each sample was measured in triplicate. The measurement conditions were: […] scattering angle, and 25° C.
Each entry below carries its reported PDI (%).
Note: unit % is implicit; provide only the numeric part.

The cases that follow already have their PDI (%) on record.
CCCCCCCCCCOC(=O)CCCN(CCCCCC(=O)OCCC(CCCCCC)CCCCCC)C[C@H](O)CN(CC)CCO [YK-309] | 27.6
CCCCCCCCCCOC(=O)CCCN(CCCCCC(=O)OCC(CCCCCCCC)CCCCCCCC)C[C@H](O)CN(CC)CCO [YK-308] | 13.4

Lookup: Return PDI (%) for the following compound: CCCCCCCCCCOC(=O)CCCN(CCO)CCCCCC(=O)OCC(CCCCCCCC)CCCCCCCC [YK-009, reference compound]
Found: 18.1
